- test_target: T1, extracellular domain (ECD) of human αKlotho, amino acids E34-S981 with C-terminal 6-His tag (R&D Systems … (human, UniProt Q9UEF7 34-981))
- T1 construct: range 34-981; also called αKlotho (aa34-981); target antigen
- T1 sequence: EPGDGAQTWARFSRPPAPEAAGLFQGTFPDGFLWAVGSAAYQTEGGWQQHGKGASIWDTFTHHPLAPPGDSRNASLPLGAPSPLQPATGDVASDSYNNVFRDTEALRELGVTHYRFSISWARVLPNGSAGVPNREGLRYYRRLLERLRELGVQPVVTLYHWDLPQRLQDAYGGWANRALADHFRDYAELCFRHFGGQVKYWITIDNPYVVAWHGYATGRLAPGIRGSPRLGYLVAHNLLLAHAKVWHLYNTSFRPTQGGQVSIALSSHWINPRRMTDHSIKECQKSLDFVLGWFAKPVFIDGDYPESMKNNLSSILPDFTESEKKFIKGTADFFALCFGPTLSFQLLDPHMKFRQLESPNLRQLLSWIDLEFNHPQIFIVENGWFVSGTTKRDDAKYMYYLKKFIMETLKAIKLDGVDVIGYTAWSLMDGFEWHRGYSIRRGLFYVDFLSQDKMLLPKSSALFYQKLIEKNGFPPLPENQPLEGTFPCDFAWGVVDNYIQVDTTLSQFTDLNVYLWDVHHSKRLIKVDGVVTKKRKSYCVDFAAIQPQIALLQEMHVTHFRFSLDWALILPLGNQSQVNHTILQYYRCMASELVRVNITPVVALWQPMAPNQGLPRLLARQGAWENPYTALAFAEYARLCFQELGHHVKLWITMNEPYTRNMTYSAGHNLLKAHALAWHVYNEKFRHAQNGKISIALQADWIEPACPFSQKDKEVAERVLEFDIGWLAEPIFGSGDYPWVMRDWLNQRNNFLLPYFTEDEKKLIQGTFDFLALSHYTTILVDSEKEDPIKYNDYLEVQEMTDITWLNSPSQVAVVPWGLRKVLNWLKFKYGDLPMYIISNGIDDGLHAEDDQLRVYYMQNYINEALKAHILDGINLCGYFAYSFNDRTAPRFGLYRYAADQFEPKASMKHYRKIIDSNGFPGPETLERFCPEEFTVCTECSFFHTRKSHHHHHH
- experiment_description: SPR, Fab captured by anti-H+L IgG, αKlotho injected at 50 to 6.25 ug/ml, Langmuir fit [continued]
Kd reference
observed_property: Kd (nM)

[
  {
    "binder": "anti-αKlotho Fab clone 4811 (Fab, V domains shown, Fab (also as Fab-phage); FLAG tag on light chain; also called sb180) VH: EVQLVESGGGLVQPGGSLRLSCAASGFNLYYSYMHWVRQAPGKGLEWVASIYSSSSYTSYADSVKGRFTISADTSKNTAYLQMNSLRAEDTAVYYCARSPSWWVSYHSALDYWGQGTLVTVSS VL: DIQMTQSPSSLSASVGDRVTITCRASQSVSSAVAWYQQKPGKAPKLLIYSASSLYSGVPSRFSGSRSGTDFTLTISSLQPEDFATYYCQQGYALFTFGQGTKVEIKR",
    "units_text": "nM",
    "value_measured": 1.13
  },
  {
    "binder": "anti-αKlotho Fab clone 4812 (Fab, V domains shown, Fab (also as Fab-phage); FLAG tag on light chain; also called sb181) VH: EVQLVESGGGLVQPGGSLRLSCAASGFNLSSYSMHWVRQAPGKGLEWVASISSYSGYTSYADSVKGRFTISADTSKNTAYLQMNSLRAEDTAVYYCARSYSWWWSVSYAMDYWGQGTLVTVSS VL: DIQMTQSPSSLSASVGDRVTITCRASQSVSSAVAWYQQKPGKAPKLLIYSASSLYSGVPSRFSGSRSGTDFTLTISSLQPEDFATYYCQQGYWLFTFGQGTKVEIK",
    "units_text": "nM",
    "value_measured": 0.387
  },
  {
    "binder": "anti-αKlotho Fab clone 4820 (Fab, V domains shown, Fab (also as Fab-phage); FLAG tag on light chain; also called sb189) VH: EVQLVESGGGLVQPGGSLRLSCAASGFNISSYYMHWVRQAPGKGLEWVASIYSSYSSTYYADSVKGRFTISADTSKNTAYLQMNSLRAEDTAVYYCARGAWAMDYWGQGTLVTVSS VL: DIQMTQSPSSLSASVGDRVTITCRASQSVSSAVAWYQQKPGKAPKLLIYSASSLYSGVPSRFSGSRSGTDFTLTISSLQPEDFATYYCQQSPWGAYLITFGQGTKVEIKR",
    "units_text": "nM",
    "value_measured": 1.48
  }
]
